- Test system: M. tuberculosis H37Rv
- experimental protocol: Minimum bactericidal concentration (MBC, CFU Assay)
- Type: cell-based, Mycobacterium tuberculosis
- study conditions: CFU Assay MBC99 relative to rifampin (RMP = 1)

compound | study system | prefix operator | MBC99 Day 7 (CFU Assay) MBC99 Rel to RMP
CO[C@H]1/C=C/O[C@@]2(C)Oc3c(C)c(O)c4c(=O)c(c5oc6cc(C)cc(N7CCN(C(=O)c8ccc9occc9c8)CC7)c6nc-5c4c3C2=O)NC(=O)/C(C)=C\C=C\[C@H](C)[C@H](O)[C@@H](C)[C@@H](O)[C@@H](C)[C@H](OC(C)=O)[C@@H]1C [Compound 30h] | M. tuberculosis H37Rv | < | 0.08
CO[C@H]1/C=C/O[C@@]2(C)Oc3c(C)c(O)c4c(=O)c(c5oc6cccc(OCCCCN7CCOCC7)c6nc-5c4c3C2=O)NC(=O)/C(C)=C\C=C\[C@H](C)[C@H](O)[C@@H](C)[C@@H](O)[C@@H](C)[C@H](OC(C)=O)[C@@H]1C | M. tuberculosis H37Rv | = | 0.38
CO[C@H]1/C=C/O[C@@]2(C)Oc3c(C)c(O)c4c(=O)c(c5oc6cccc(OCCCCN7CCN(C(=O)OC(C)(C)C)CC7)c6nc-5c4c3C2=O)NC(=O)/C(C)=C\C=C\[C@H](C)[C@H](O)[C@@H](C)[C@@H](O)[C@@H](C)[C@H](OC(C)=O)[C@@H]1C | M. tuberculosis H37Rv | = | 0.77
CO[C@H]1/C=C/O[C@@]2(C)Oc3c(C)c(O)c4c(=O)c(c5oc6cccc(OCc7cccc(CN8CCN(C(=O)Cn9ccnc9)CC8)c7)c6nc-5c4c3C2=O)NC(=O)/C(C)=C\C=C\[C@H](C)[C@H](O)[C@@H](C)[C@@H](O)[C@@H](C)[C@H](OC(C)=O)[C@@H]1C [Compound 11e] | M. tuberculosis H37Rv | = | 0.15
CO[C@H]1/C=C/O[C@@]2(C)Oc3c(C)c(O)c4c(=O)c(c5oc6cc(N7CCN(C)CC7)cc(OCCCCN7CCN(C(=O)Cn8ccnc8)CC7)c6nc-5c4c3C2=O)NC(=O)/C(C)=C\C=C\[C@H](C)[C@H](O)[C@@H](C)[C@@H](O)[C@@H](C)[C@H](OC(C)=O)[C@@H]1C | M. tuberculosis H37Rv | = | 0.38
CO[C@H]1/C=C/O[C@@]2(C)Oc3c(C)c(O)c4c(=O)c(c5oc6cc(N7CCN(CC(C)C)CC7)cc(OCc7cccc(CN8CCN(C(=O)Cn9ccnc9)CC8)c7)c6nc-5c4c3C2=O)NC(=O)/C(C)=C\C=C\[C@H](C)[C@H](O)[C@@H](C)[C@@H](O)[C@@H](C)[C@H](OC(C)=O)[C@@H]1C [Compound 12c] | M. tuberculosis H37Rv | < | 0.08
CO[C@H]1/C=C/O[C@@]2(C)Oc3c(C)c(O)c4c(=O)c(c5oc6cc(N7CCN(CC(C)C)CC7)cc(OCc7ccc(CN8CCN(C(=O)CN9CCOCC9)CC8)cc7)c6nc-5c4c3C2=O)NC(=O)/C(C)=C\C=C\[C@H](C)[C@H](O)[C@@H](C)[C@@H](O)[C@@H](C)[C@H](OC(C)=O)[C@@H]1C [Compound 17d] | M. tuberculosis H37Rv | = | 0.15
CO[C@H]1/C=C/O[C@@]2(C)Oc3c(C)c(O)c4c(=O)c(c5oc6cc(N7CCN(CC(C)C)CC7)cc(OCc7ccc(CN8CCN(C(=O)Cn9ccnc9)CC8)cc7)c6nc-5c4c3C2=O)NC(=O)/C(C)=C\C=C\[C@H](C)[C@H](O)[C@@H](C)[C@@H](O)[C@@H](C)[C@H](OC(C)=O)[C@@H]1C [Compound 17c] | M. tuberculosis H37Rv | = | 0.15
CO[C@H]1/C=C/O[C@@]2(C)Oc3c(C)c(O)c4c(=O)c(c5oc6cc(N7CCN(CCCO[C@@H]8COc9nc([N+](=O)[O-])cn9C8)CC7)cc(C)c6nc-5c4c3C2=O)NC(=O)/C(C)=C\C=C\[C@H](C)[C@H](O)[C@@H](C)[C@@H](O)[C@@H](C)[C@H](OC(C)=O)[C@@H]1C [Compound 29d] | M. tuberculosis H37Rv | = | 0.62
CO[C@H]1/C=C/O[C@@]2(C)Oc3c(C)c(O)c4c(=O)c(c5oc6cccc(OCc7ccc(CN8CCN(C(=O)Cn9ccnc9)CC8)cc7)c6nc-5c4c3C2=O)NC(=O)/C(C)=C\C=C\[C@H](C)[C@H](O)[C@@H](C)[C@@H](O)[C@@H](C)[C@H](OC(C)=O)[C@@H]1C [Compound 16b] | M. tuberculosis H37Rv | = | 0.15
CO[C@H]1/C=C/O[C@@]2(C)Oc3c(C)c(O)c4c(=O)c(c5oc6cc(C)cc(N7CCN(C(=O)c8cccc(-c9ccccn9)c8)CC7)c6nc-5c4c3C2=O)NC(=O)/C(C)=C\C=C\[C@H](C)[C@H](O)[C@@H](C)[C@@H](O)[C@@H](C)[C@H](OC(C)=O)[C@@H]1C [Compound 30g] | M. tuberculosis H37Rv | < | 0.08
